# system: ARHGEF12, Q9NZN5-2
# Sequence (Q9NZN5 other isoform, or with tags, fused parts or gaps): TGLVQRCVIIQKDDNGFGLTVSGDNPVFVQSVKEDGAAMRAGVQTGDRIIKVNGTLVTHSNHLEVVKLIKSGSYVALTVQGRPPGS
# run description: holdup assay
# Parameters: key: below the threshold = too weak to quantify, mostly under pKd 3.1 to 4
# measurement conditions: plain residues with an end cap or a label only (N-terminal biotin on a linker: ado-ado)
measured metric: pKd
Please give the numeric answer without any surrounding text.

Worked cases, pKd given:
> print(dat)
                         binder  assay.value
1  RFQQRMQTHV [KIRREL1, Q96J84]         4.44
2    RQKEVRESKC [SCN8A, Q9UQD0]         3.64
3    VLYPREGTEV [FOXI1, Q12951]         4.08

Note: attention shifts to another entry.
Query :: Looking for the measured pKd of ARESQKVSHV [FAM110B, Q8TC76] , can you help?
Result :: 4.58
